# reported % theoretical activity; entries follow
Test system: Caco-2 cells
Assay: Epithelial transcellular transport of drug activity through Caco-2 monolayers
Assay type: in vitro ADME
Conditions: % of activity passing through Caco-2 monolayer
Protocol: H4βAPP695 wt cells, a human […] cell line stably transfected with a wtβAPP695 expression vector construct under the control of a CMV promoter (kindly provided by Dr. Chris Eckman from Mayo Clinic, Florida) were cultured as previously described. Twenty-four hours before drug treatment, the media was replaced with serum-free media. […] Transepithelial resistance was measured in each well and found to be >160 Ω/cm^2. […]

inputSmiles: COc1cccc(CSCCNC(=O)c2c(Cl)cccc2Cl)c1OC
targetSystem: Caco-2 cells
readoutUnit: %
% theoretical activity: 45.9

inputSmiles: O=C(NCCSCc1ccccc1Cl)c1c(Cl)cccc1Cl
targetSystem: Caco-2 cells
readoutUnit: %
% theoretical activity: 41.8

inputSmiles: COc1cccc(CSCCNC(=O)c2c(Cl)cccc2Cl)c1
targetSystem: Caco-2 cells
readoutUnit: %
% theoretical activity: 29.5

inputSmiles: O=C(NCCSCc1ccccc1)c1c(Cl)cccc1Cl
targetSystem: Caco-2 cells
readoutUnit: %
% theoretical activity: 60.1

inputSmiles: O=C(NCCSCc1cccc(I)c1)c1c(Cl)cccc1Cl
targetSystem: Caco-2 cells
readoutUnit: %
% theoretical activity: 1.3

inputSmiles: COc1cc(Cl)cc(CSCCNC(=O)c2c(Cl)cccc2Cl)c1
targetSystem: Caco-2 cells
readoutUnit: %
% theoretical activity: 4.0
